Would you mind telling me the reported mouse IL-18 reporter assay EC50, +Mouse IL-18BP 50 nM of each entry?
Target: T1, mouse IL-18 binding protein (mouse, UniProt Q9Z0M9 29-193)
T1 sequence (looked up): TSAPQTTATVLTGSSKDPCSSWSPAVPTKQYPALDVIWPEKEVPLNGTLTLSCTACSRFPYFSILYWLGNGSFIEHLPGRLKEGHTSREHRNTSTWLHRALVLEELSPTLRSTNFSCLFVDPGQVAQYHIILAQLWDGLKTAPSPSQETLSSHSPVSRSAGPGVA
Assay: cell-based or functional assay
Please respond with the number in pM and leave the unit unwritten.

Entry mouse IL-18 G3T, H6K, K52A on monoFc scaffold (Fc fusion, not shown: small tags and cut ends) NFTRLKSTTAVIRNINDQVLFVDKRQPVFEDMTDIDQSASEPQTRLIIYMYADSEVRGLAVTLSVKDSKMSTLSSKNKIISFEEMDPPENIDDIQSDLIFFQKRVPGHNKMEFESSLYEGHFLACQKEDDAFKLILKKKDENGDKSVMFTLTNLHQSNGGPSVFLFPPKPKDTLMISRTPEVTCVVVDVSHEDPEVKFNWYVDGVEVHNAKTKPREEQYNSTYRVVSVLTVLHQDWLNGKEYKCKVSNKALPAPIEKTISKAKGQPREPQVYTLPPSREEMTKNQVNLTCLVKGFYPSDIAVEWESNGQPENNYKTTPPVLDSDGSFFLNSTLTVDKSRWQQGNVFSCSVMHEALHNHYTQKSLSLS ; mouse IL-18 reporter assay EC50, +Mouse IL-18BP 50 nM = 1.69

The recorded mouse IL-18 reporter assay EC50, +Mouse IL-18BP 50 nM for entry Comparator 5 (ligand) HFGRLHCTTAVIRNINDQVLFVDKRQPVFEDMTDIDQSASEPQTRLIIYAYGDSRARGKAVTLSVKDSKMSTLSCKNKIISFEEMDPPENIDDIQSDLIFFQKRVPGHNKMEFESSLYEGHFLACQKEDDAFKLILKKKDENGDKSVMFTLTNLHQS equals 0.91

get_value(item= mouse IL-18 G3T, K52A on monoFc scaffold (Fc fusion, not shown: small tags and cut ends) NFTRLHSTTAVIRNINDQVLFVDKRQPVFEDMTDIDQSASEPQTRLIIYMYADSEVRGLAVTLSVKDSKMSTLSSKNKIISFEEMDPPENIDDIQSDLIFFQKRVPGHNKMEFESSLYEGHFLACQKEDDAFKLILKKKDENGDKSVMFTLTNLHQSNGGPSVFLFPPKPKDTLMISRTPEVTCVVVDVSHEDPEVKFNWYVDGVEVHNAKTKPREEQYNSTYRVVSVLTVLHQDWLNGKEYKCKVSNKALPAPIEKTISKAKGQPREPQVYTLPPSREEMTKNQVNLTCLVKGFYPSDIAVEWESNGQPENNYKTTPPVLDSDGSFFLNSTLTVDKSRWQQGNVFSCSVMHEALHNHYTQKSLSLS , readout=mouse IL-18 reporter assay EC50, +Mouse IL-18BP 50 nM) returns 20.8

mouse IL-18 reporter assay EC50, +Mouse IL-18BP 50 nM recorded for this binder, mouse IL-18 G3V, K52A on monoFc scaffold (Fc fusion, not shown: small tags and cut ends) NFVRLHSTTAVIRNINDQVLFVDKRQPVFEDMTDIDQSASEPQTRLIIYMYADSEVRGLAVTLSVKDSKMSTLSSKNKIISFEEMDPPENIDDIQSDLIFFQKRVPGHNKMEFESSLYEGHFLACQKEDDAFKLILKKKDENGDKSVMFTLTNLHQSNGGPSVFLFPPKPKDTLMISRTPEVTCVVVDVSHEDPEVKFNWYVDGVEVHNAKTKPREEQYNSTYRVVSVLTVLHQDWLNGKEYKCKVSNKALPAPIEKTISKAKGQPREPQVYTLPPSREEMTKNQVNLTCLVKGFYPSDIAVEWESNGQPENNYKTTPPVLDSDGSFFLNSTLTVDKSRWQQGNVFSCSVMHEALHNHYTQKSLSLS , is 36.4
